peptide exchange yield for assorted binders
experimental-system: HLA-A*24 (human)
protocol-summary: UV peptide-exchange ELISA, yield grade

>  <binder>
KFSSFSLFF [… (SEQ ID NO: 164)]

>  <peptide exchange yield>
50 to 75%

$$$$
>  <binder>
EYQENFLSF [… (SEQ ID NO: 206)]

>  <peptide exchange yield>
50 to 75%

$$$$
>  <binder>
LYNKGFIYL [… (SEQ ID NO: 159)]

>  <peptide exchange yield>
> 75%

$$$$
>  <binder>
EYNQWFTKL [… (SEQ ID NO: 176)]

>  <peptide exchange yield>
50 to 75%

$$$$
>  <binder>
MYDSYWRQF [… (SEQ ID NO: 179)]

>  <peptide exchange yield>
> 75%

$$$$
>  <binder>
FFPPTRQMGLLF [… (SEQ ID NO: 217)]

>  <peptide exchange yield>
> 75%

$$$$
>  <binder>
VYVSDIQEL [… (SEQ ID NO: 288)]

>  <peptide exchange yield>
50 to 75%

$$$$
>  <binder>
RYLNKAFHI [… (SEQ ID NO: 284)]

>  <peptide exchange yield>
50 to 75%

$$$$

Ask: Give its peptide exchange yield value. Item: EFGSLHLEFL [… (SEQ ID NO: 194)]
Result: < 20%

Ask: For TYTTVPRVAF [… (SEQ ID NO: 172)] , what is its reported peptide exchange yield?
Result: > 75%
